- MEASURED ON: Human NHE-1 (Homo sapiens)
- Sequence (P19634 whole entry): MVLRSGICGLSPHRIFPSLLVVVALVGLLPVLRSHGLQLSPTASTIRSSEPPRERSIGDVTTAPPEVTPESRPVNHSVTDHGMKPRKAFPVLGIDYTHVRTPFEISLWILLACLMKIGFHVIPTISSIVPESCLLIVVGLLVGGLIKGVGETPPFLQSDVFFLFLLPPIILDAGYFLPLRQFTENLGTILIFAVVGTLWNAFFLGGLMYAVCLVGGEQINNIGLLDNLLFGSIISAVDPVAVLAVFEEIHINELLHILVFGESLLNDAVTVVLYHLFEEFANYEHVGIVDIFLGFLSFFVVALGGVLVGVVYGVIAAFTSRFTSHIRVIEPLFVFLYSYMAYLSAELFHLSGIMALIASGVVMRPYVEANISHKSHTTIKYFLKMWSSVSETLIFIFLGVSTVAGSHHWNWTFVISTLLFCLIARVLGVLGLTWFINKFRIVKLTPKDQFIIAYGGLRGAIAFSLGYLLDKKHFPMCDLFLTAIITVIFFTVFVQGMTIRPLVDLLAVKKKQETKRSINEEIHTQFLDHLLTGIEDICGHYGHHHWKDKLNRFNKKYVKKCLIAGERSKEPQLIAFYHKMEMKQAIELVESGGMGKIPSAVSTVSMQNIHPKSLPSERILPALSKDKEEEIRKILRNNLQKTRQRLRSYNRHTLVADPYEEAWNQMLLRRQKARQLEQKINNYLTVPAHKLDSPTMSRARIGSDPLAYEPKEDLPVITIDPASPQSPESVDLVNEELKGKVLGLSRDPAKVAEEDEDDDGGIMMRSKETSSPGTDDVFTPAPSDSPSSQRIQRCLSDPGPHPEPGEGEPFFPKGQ
- PROTOCOL SUMMARY: Inhibitory effect on NHE-1 in PS120/NHE-1 cells (recovery from intracellular acidosis, BCECF fluorescence)
- CONDITION NOTES: human NHE-1 expressed PS120 cells; concentration at which recovery from intracellular acidosis was 50% inhibited
RESULT TYPE: IC50 (nM)
Write down the numeric answer in nM and omit the unit.

In the examples that follow, each entry is paired with its recorded IC50.
N=C(N)NC(=O)c1cc2c(-c3ccccc3F)cccc2s1 [Example 5, Methanesulfonate] : 10500
CC(C)c1cccc2sc(C(=O)N=C(N)N)cc12 [Example 38, Methanesulfonate] : 850
CC(C)c1ccc(C(=O)NC(=N)N)cc1S(C)(=O)=O [Cariporide, cariporide, reference compound] : 680
Cc1ccc2sc(C(=O)N=C(N)N)cc2c1Cl [Example 46, Methanesulfonate] : 540
Cc1ccc(F)c(-c2cccc3sc(C(=O)N=C(N)N)cc23)c1 [Example 29, Methanesulfonate] : 6690

Specify IC50 for C=Cc1cccc2sc(C(=O)N=C(N)N)cc12.CS(=O)(=O)O [Example 36, Methanesulfonate] and stop.
310

The values you see were collected from patent US8143307B2.
